SYSTEM NAME: human RXFP1 (Homo sapiens, UniProt Q9HBX9)
Construct: expressed in transfected cells
Sequence (Q9HBX9 whole entry): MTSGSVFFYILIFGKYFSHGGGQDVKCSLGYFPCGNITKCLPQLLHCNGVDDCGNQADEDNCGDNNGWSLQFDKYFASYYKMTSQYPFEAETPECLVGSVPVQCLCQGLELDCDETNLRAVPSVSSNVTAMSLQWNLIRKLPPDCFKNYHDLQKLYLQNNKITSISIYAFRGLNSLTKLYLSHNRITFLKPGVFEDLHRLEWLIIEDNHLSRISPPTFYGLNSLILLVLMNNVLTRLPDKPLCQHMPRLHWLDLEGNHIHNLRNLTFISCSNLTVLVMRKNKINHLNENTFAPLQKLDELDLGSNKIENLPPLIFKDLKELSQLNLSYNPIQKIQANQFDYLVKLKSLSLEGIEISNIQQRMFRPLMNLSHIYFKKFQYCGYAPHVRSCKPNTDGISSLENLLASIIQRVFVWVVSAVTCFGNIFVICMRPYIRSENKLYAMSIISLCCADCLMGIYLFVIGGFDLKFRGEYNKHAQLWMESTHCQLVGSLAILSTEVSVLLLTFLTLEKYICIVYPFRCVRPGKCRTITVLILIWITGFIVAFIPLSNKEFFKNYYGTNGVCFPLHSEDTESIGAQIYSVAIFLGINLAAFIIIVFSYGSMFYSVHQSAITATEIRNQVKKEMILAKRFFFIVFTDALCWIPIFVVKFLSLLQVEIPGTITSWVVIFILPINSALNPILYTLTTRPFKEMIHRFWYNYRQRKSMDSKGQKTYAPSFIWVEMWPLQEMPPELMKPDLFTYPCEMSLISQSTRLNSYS
ASSAY: RXFP1 cAMP assay (hRXFP1 HEK293 cAMP assay, HTRF)
Format: cell-based
MEASUREMENT SETUP: HEK293 cells stably expressing human RXFP1, 30 min at room temperature, read-out: cAMP hRXFP1 HEK293 Assay EC50
MEASURED METRIC: log10 of EC50 (log10 of the value in nM)
Please note: log10 values; quantity EC50; unit nM.

Input line: Record lookup: for human RXFP1 (Homo sapiens, UniProt Q9HBX9), what log10 of EC50 belongs to COc1ccc(C2=NOC(C)(C(=O)O)C2)cc1C(=O)N[C@@H]1C2CCC(/C2=C/C2CC2)[C@@H]1C(=O)Nc1ccc(F)c(C(F)(F)F)c1 (some centres unmarked) [compound 422] ?
Output line: 1.74

Input line: Next up: COc1ccc(C2=NOC(CC(=O)O)C2)cc1C(=O)N[C@@H]1C2CCC(/C2=C/C2CC2)[C@@H]1C(=O)Nc1ccc(F)c(C(F)(F)F)c1 (single isomer, unassigned) [Example 390]
Output line: 1.57

Input line: Next up: COc1c(Cl)cc(C2=NOC3CC(CO)CC23)cc1C(=O)N[C@H]1[C@@H](C(=O)Nc2ccc(F)c(C(F)(F)F)c2)[C@H]2CC[C@@H]1/C2=C\C1CC1 (some centres unmarked) [compound 798]
Output line: 0.67

Input line: Next up: COc1ccc(C2=NOC3COCC23)cc1C(=O)N[C@H]1[C@@H](C(=O)NC23CC(C#N)(C2)C3)[C@H]2CC[C@@H]1/C2=C\C1CC1 (some centres unmarked) [compound 777]
Output line: 1.14

Input line: Next up: COc1ccc(-c2cc(C(=O)O)ccc2F)cc1C(=O)N[C@@H]1C2CCC(/C2=C/C2CC2)[C@@H]1C(=O)NC(C)c1nccs1 (some centres unmarked) [compound 309]
Output line: 3.64

Input line: Next up: COc1ccc(C2=NOC3CC(C(C)(C)O)CC23)cc1C(=O)N[C@H]1[C@@H](C(=O)Nc2ccc(F)c(C(F)(F)F)c2)[C@H]2CC[C@@H]1/C2=C\C1CC1 (single isomer, unassigned) [compound 464]
Output line: 0.51

Input line: Next up: COc1ccc(-c2cc(C(OC(=O)Nc3ccccc3)C(=O)O)ccc2F)cc1C(=O)N[C@H]1[C@@H](C(=O)Nc2ccc(F)c(C(F)(F)F)c2)[C@H]2CC[C@@H]1/C2=C\C1CC1 (some centres unmarked) [compound 965]
Output line: 0.68

Input line: Next up: COc1cc(F)c(F)cc1C(=O)N[C@@H]1C2CCC(/C2=C/c2ccccc2F)[C@@H]1C(=O)Nc1ccc(F)c(C(F)(F)F)c1 (some centres unmarked) [compound 54]
Output line: 2.20

Input line: Next up: COc1ccc(C2=NOC3COCC23)cc1C(=O)N[C@H]1[C@@H](C(=O)NCCc2ccccc2C)[C@H]2CC[C@@H]1/C2=C\C1CC1 (some centres unmarked) [compound 520]
Output line: 1.29

Input line: Next up: COc1ccc(C2=NOC(C(C)(O)C(F)(F)F)C2)cc1C(=O)N[C@H]1[C@@H](C(=O)Nc2ccc(F)c(C(F)(F)F)c2)[C@H]2CC[C@@H]1/C2=C\C1CC1 (single isomer, unassigned) [compound 517]
Output line: 1.26

Input line: Next up: COc1ccc(-c2cc(C(O)C(=O)O)ccc2F)cc1C(=O)NC1C2CCC(/C2=C/C2CCN(Cc3ccc(Cl)cc3)C2)C1C(=O)Nc1ccc(F)c(C(F)(F)F)c1 (centres unmarked) [compound 357]
Output line: 2.32
